- Species: Homo sapiens
- assay.procedure: Selectivity index, ratio IC50 for inhibition of recombinant human full-length N-terminal His6-tagged p110alpha/untagged full-length p85alpha expressed in baculovirus infected Sf21 cells to ratio IC50 for inhibition of recombinant human full-length N-terminal GST-tagged p110delta/untagged full-length p85alpha expressed in baculovirus infected Sf21 cells
measure: Ratio IC50

| smiles.text | recorded.result |
| --- | --- |
| C[C@@H]1CN(c2nc(-c3cnn(C)c3)ncc2C#N)CCN1C(=O)C1CCC1 | > 33 |

// query // lookup Ratio IC50 for CCNC(=O)N1C[C@@H]2C[C@H]1CN2c1nc(-c2cnn(C)c2)ncc1C#N
// result > 6

// query // lookup Ratio IC50 for CCC(=O)N1CCN(c2nc(-c3cnn(C)c3)ncc2C#N)C[C@H]1C
// result > 48

// query // lookup Ratio IC50 for C[C@@H]1CN(c2nc(-c3cnn(C)c3)ncc2C#N)CCN1C(=O)C1CC1
// result > 116

// query // lookup Ratio IC50 for N#Cc1cnc(-c2cccnc2)nc1N1C[C@@H]2C[C@H]1CN2c1cccc(Cl)c1
// result 62

// query // lookup Ratio IC50 for N#Cc1cnc(-c2cnc3[nH]ccc3c2)nc1N1C[C@@H]2C[C@H]1CN2c1cccc(F)c1
// result 8
